- assayComment: Equilibrium solubility by HPLC, Form C, ambient temperature
- Assay type: physicochemical
- setupConditions: Triacetic, organic solvent or mixture, thermodynamic from solid, Triacetic; read-out: Solubility by HPLC

smilesRecord | solubility
CC(=O)N1CCc2c(C(=O)N3CCC(c4ccc(F)c(F)c4C(F)(F)F)CC3)n[nH]c2C1 | 430 µg/mL

----------
- assayComment: Estimated solubility by solvent aliquot addition, visual inspection
- Format: physicochemical
- setupConditions: ethyl ether, organic solvent or mixture, thermodynamic from solid

compound | solubility
CC(=O)N1CCc2c(C(=O)N3CCC(c4ccc(F)c(F)c4C(F)(F)F)CC3)n[nH]c2C1 [Compound 1] | < 1000 µg/mL

----------
- assayComment: Equilibrium solubility by HPLC, Form C, ambient temperature
- Type: physicochemical
- setupConditions: Plurol Oleique CC 497, oil or lipid, thermodynamic from solid, Plurol Oleique CC 497; read-out: Solubility by HPLC
measuredAttribute: solubility (µg/mL)

compound | quantityUnit | obsValue
CC(=O)N1CCc2c(C(=O)N3CCC(c4ccc(F)c(F)c4C(F)(F)F)CC3)n[nH]c2C1 [Compound 1] | µg/mL | 1200

----------
- assayComment: Equilibrium solubility by HPLC, Form C, ambient temperature
- Format: physicochemical
- setupConditions: Soybean Oil, oil or lipid, thermodynamic from solid, Soybean Oil; read-out: Solubility by HPLC
measuredAttribute: solubility (µg/mL)

molecule | quantityUnit | obsValue
CC(=O)N1CCc2c(C(=O)N3CCC(c4ccc(F)c(F)c4C(F)(F)F)CC3)n[nH]c2C1 [Compound 1] | µg/mL | 30

----------
- assayComment: Saturated solubility at 80° C., visually estimated
- Format: physicochemical
- setupConditions: Capmul MCM, 80 °C, oil or lipid, thermodynamic from solid

molecule | solubility
CC(=O)N1CCc2c(C(=O)N3CCC(c4ccc(F)c(F)c4C(F)(F)F)CC3)n[nH]c2C1 [Compound 1] | 16 mg/mL

----------
- assayComment: Estimated solubility by solvent aliquot addition, visual inspection
- Type: physicochemical
- setupConditions: acetonitrile, organic solvent or mixture, thermodynamic from solid
- Procedure: Solubilities of Compound 1 in a few solvents were estimated. The experiments were carried out by adding the test solvent in aliquots to weighed portions of solid. […] Solubility numbers were calculated by dividing the total amount of solvent used to dissolve the sample by the weight of the sample. The actual solubilities may be greater than the numbers calculated because of the use of solvent aliquots that were too large or because of slow dissolution rates. […]

smilesRecord | solubility
CC(=O)N1CCc2c(C(=O)N3CCC(c4ccc(F)c(F)c4C(F)(F)F)CC3)n[nH]c2C1 | < 1000 µg/mL

----------
- assayComment: Equilibrium solubility by HPLC, Form C, ambient temperature
- Type: physicochemical
- setupConditions: Miglyol 810, oil or lipid, thermodynamic from solid, Miglyol 810; read-out: Solubility by HPLC

smilesRecord | solubility
CC(=O)N1CCc2c(C(=O)N3CCC(c4ccc(F)c(F)c4C(F)(F)F)CC3)n[nH]c2C1 | 53 µg/mL

----------
- assayComment: Equilibrium solubility by HPLC, Form C, ambient temperature
- Format: physicochemical
- setupConditions: Gelucire 44/14 1 mg/mL (500× cmc), aqueous with cosolvent or surfactant or cyclodextrin, thermodynamic from solid, Gelucire 44/14; 1 mg/mL (500× cmc); read-out: Solubility by HPLC
measuredAttribute: solubility (µg/mL)

compound | quantityUnit | obsValue
CC(=O)N1CCc2c(C(=O)N3CCC(c4ccc(F)c(F)c4C(F)(F)F)CC3)n[nH]c2C1 [Compound 1] | µg/mL | 0.8
